Hey, just so you know, these numbers are from ChEMBL document CHEMBL1817572.

# TEST SYSTEM: Vasopressin V1b receptor (Homo sapiens, UniProt P47901)
# Sequence (P47901 whole entry): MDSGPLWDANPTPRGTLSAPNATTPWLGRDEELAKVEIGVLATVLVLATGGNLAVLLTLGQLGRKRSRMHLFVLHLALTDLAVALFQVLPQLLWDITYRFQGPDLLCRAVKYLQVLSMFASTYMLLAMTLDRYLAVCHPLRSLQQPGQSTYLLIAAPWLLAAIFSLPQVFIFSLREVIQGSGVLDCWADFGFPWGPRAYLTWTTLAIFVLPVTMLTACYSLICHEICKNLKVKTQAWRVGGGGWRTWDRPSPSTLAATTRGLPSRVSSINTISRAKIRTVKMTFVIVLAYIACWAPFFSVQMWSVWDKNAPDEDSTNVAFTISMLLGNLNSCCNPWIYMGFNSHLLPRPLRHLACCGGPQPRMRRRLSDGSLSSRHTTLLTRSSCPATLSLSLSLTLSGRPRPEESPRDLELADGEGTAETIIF
# METHOD: Agonist activity at recombinant human vasopressin V1b receptor expressed in Flp-In-293 cells by luciferase reporter gene assay
# Format: functional, cell-based
# STATED CONDITIONS: read-out: EC50
Bridge positions count the residues as written; N and C are the ends. Square brackets hold non-standard residues; d marks the D form. Peptide text beside a SMILES is read from it. Ala(2-furyl) = N[C@@H](Cc1ccco1)C(=O)O; Ala(cPent) = N[C@@H](CC1CCCC1)C(=O)O; Orn(iPr) = CC(C)NCCC[C@H](N)C(=O)O; 3Thi = N[C@@H](Cc1ccsc1)C(=O)O; Orn = NCCC[C@H](N)C(=O)O; Dab = NCC[C@H](N)C(=O)O
For each of the compounds below, state its pEC50.
Note on pEC50: it is the negative log10 of concentration, concentration in mol/L.

Input: Tell me the measured pEC50 of CC[C@H](C)[C@@H]1NC(=O)[C@H](CC2CCCC2)NC(=O)[C@@H](N)CSSC[C@@H](C(=O)N2CCC[C@H]2C(=O)N[C@@H](CCCN)C(=O)NCC(N)=O)NC(=O)[C@H](CC(N)=O)NC(=O)[C@H](CC(N)=O)NC1=O (H-C[Ala(cPent)]INNCP[Orn]G-NH2; disulfide 1-6) , please.
Output: 6.92

Input: Any idea what its pEC50 is? The compound is CC[C@H](C)[C@@H]1NC(=O)[C@H](Cc2ccsc2)NC(=O)[C@@H](N)CSSC[C@@H](C(=O)N2CCC[C@H]2C(=O)N[C@@H](CCN)C(=O)NCC(N)=O)NC(=O)[C@H](CC(N)=O)NC(=O)[C@H](CC(N)=O)NC1=O (H-C[3Thi]INNCP[Dab]G-NH2; disulfide 1-6)
Output: 6.42

Input: Sample CC[C@H](C)[C@@H]1NC(=O)[C@H](Cc2ccco2)NC(=O)[C@@H](N)CSSC[C@@H](C(=O)N2CCC[C@H]2C(=O)N[C@@H](CCCNC(C)C)C(=O)NCC(N)=O)NC(=O)[C@H](CC(N)=O)NC(=O)[C@H](CC(N)=O)NC1=O (H-C[Ala(2-furyl)]INNCP[Orn(iPr)]G-NH2; disulfide 1-6) — what was its pEC50?
Output: 5.74

----------
Consider the following molecules; for each one, report its pEC50.
# TEST SYSTEM: Oxytocin receptor (Homo sapiens, UniProt P30559)
# Sequence (P30559 whole entry): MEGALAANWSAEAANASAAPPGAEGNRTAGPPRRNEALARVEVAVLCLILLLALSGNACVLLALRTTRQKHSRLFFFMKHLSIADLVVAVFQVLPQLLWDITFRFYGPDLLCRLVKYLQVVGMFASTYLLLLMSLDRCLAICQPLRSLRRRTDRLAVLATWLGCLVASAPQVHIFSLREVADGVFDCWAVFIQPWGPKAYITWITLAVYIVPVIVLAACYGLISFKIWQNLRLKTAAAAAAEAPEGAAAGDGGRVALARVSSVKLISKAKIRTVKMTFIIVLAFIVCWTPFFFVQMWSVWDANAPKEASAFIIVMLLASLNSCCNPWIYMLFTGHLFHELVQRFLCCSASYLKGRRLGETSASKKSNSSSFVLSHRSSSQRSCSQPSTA
# METHOD: Agonist activity at human OT receptor expressed in CHO-K1 cells by luciferase reporter gene assay
# Type: functional, cell-based
# STATED CONDITIONS: cho-k1; read-out: EC50
pEC50: −log10 of the molar value. Bridge positions count the residues as written; N and C are the ends. Square brackets hold non-standard residues; d marks the D form. Peptide text beside a SMILES is read from it. Orn(Pr) = CCCNCCC[C@H](N)C(=O)O; Aad = N[C@@H](CCCC(=O)O)C(=O)O; Orn = NCCC[C@H](N)C(=O)O; Dab = NCC[C@H](N)C(=O)O

Input: Any idea what its pEC50 is? The molecule is CC[C@H](C)[C@@H]1NC(=O)[C@H](Cc2ccccc2)NC(=O)[C@@H](N)CSSC[C@@H](C(=O)N2CCC[C@H]2C(=O)N[C@@H](CCCN)C(=O)NCC(N)=O)NC(=O)[C@H](CC(N)=O)NC(=O)[C@H](CCCC(N)=O)NC1=O (H-CFI[Aad](NH2)NCP[Orn]G-NH2; disulfide 1-6)
Output: < 5.00

Input: Which value of pEC50 has been reported for CCCNCCC[C@H](NC(=O)[C@@H]1CCCN1C(=O)[C@@H]1CSSC[C@H](N)C(=O)N[C@@H](Cc2ccccc2)C(=O)N[C@@H]([C@@H](C)CC)C(=O)N[C@@H](CC(N)=O)C(=O)N[C@@H](CC(N)=O)C(=O)N1)C(=O)NCC(N)=O (H-CFINNCP[Orn(Pr)]G-NH2; disulfide 1-6) in the records?
Output: < 5.00

Input: Value lookup for pEC50; key = CC[C@H](C)[C@@H]1NC(=O)[C@H](Cc2cnc[nH]2)NC(=O)[C@@H](N)CSSC[C@@H](C(=O)N2CCC[C@H]2C(=O)N[C@@H](CCN)C(=O)NCC(N)=O)NC(=O)[C@H](CC(N)=O)NC(=O)[C@H](CCC(N)=O)NC1=O (H-CHIQNCP[Dab]G-NH2; disulfide 1-6)
Output: < 5.00

----------
# Species on record: Homo sapiens
# METHOD: Selectivity ratio of EC50 for human vasopressin V1b receptor to EC50 for human vasopressin V1a receptor
Bridge positions count the residues as written; N and C are the ends. Square brackets hold non-standard residues; d marks the D form. Peptide text beside a SMILES is read from it. Ala(2-furyl) = N[C@@H](Cc1ccco1)C(=O)O; Orn(iPr) = CC(C)NCCC[C@H](N)C(=O)O; 2Thi = N[C@@H](Cc1cccs1)C(=O)O; Orn = NCCC[C@H](N)C(=O)O
READOUT NAME: Ratio EC50
Reply with just the number.

Input: Name the reported Ratio EC50 value associated with the molecule CC[C@H](C)[C@@H]1NC(=O)[C@H](Cc2cccs2)NC(=O)[C@@H](N)CSSC[C@@H](C(=O)N2CCC[C@H]2C(=O)N[C@@H](CCCNC(C)C)C(=O)NCC(N)=O)NC(=O)[C@H](CC(N)=O)NC(=O)[C@H](CCC(N)=O)NC1=O (H-C[2Thi]IQNCP[Orn(iPr)]G-NH2; disulfide 1-6)
Output: 530

Input: Could you tell me which Ratio EC50 is on file for CC[C@H](C)[C@@H]1NC(=O)[C@H](Cc2ccco2)NC(=O)[C@@H](N)CSSC[C@@H](C(=O)N2CCC[C@H]2C(=O)N[C@@H](CCCN)C(=O)NCC(N)=O)NC(=O)[C@H](CC(N)=O)NC(=O)[C@H](CC(N)=O)NC1=O (H-C[Ala(2-furyl)]INNCP[Orn]G-NH2; disulfide 1-6) ?
Output: 53

----------
# TEST SYSTEM: Vasopressin V1a/V2 (Homo sapiens) (UniProt P30518+P37288)
# Sequence (P30518 whole entry, looked up): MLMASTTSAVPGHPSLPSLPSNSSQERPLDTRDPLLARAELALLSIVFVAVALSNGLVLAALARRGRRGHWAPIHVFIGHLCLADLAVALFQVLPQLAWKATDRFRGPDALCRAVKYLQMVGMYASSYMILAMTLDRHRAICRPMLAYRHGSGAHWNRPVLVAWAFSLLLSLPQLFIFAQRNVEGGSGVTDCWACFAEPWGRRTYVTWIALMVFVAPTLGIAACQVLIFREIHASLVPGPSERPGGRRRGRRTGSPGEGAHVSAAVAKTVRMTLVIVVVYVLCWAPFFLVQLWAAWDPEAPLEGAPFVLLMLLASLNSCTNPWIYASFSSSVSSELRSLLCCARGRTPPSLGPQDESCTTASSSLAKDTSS
# Sequence (P37288 whole entry, looked up): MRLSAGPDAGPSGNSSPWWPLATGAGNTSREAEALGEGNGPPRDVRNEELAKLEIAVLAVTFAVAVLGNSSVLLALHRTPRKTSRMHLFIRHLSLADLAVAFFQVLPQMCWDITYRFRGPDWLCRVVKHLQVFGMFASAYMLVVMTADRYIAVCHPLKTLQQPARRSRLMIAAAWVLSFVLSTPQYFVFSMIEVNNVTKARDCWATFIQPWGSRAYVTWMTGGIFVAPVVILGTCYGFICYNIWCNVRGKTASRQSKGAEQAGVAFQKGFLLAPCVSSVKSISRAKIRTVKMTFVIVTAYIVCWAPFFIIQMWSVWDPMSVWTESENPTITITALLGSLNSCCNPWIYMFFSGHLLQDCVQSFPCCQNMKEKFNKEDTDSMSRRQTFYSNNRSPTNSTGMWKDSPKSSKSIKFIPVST
# METHOD: Selectivity ratio of EC50 for human vasopressin V2 receptor to EC50 for human vasopressin V1a receptor
Numbered stars: 1 amine (or outer) side, 2 acyl side, 3 side chain; on linkers, the order of the positions; unused ones are H or OH. Bridge positions count the residues as written; N and C are the ends. Square brackets hold non-standard residues; d marks the D form. Peptide text beside a SMILES is read from it. X5 = CC(C)CCNCCC[C@H](N[*:1])C(=O)[*:2]; X1 = CCNCCC[C@H](N[*:1])C(=O)[*:2]
Would you mind telling me the reported Ratio EC50 of each entry?
Lab note: write the figure by itself, no unit.

Input: # query: Ratio EC50 of entry "CC[C@H](C)[C@@H]1NC(=O)[C@H](Cc2ccccc2)NC(=O)[C@@H](N)CSSC[C@@H](C(=O)N2CCC[C@H]2C(=O)N[C@@H](CCCNC(C)C)C(=O)NCC(N)=O)NC(=O)[C@H](CC(N)=O)NC(=O)[C@H](CCCC(N)=O)NC1=O"
Output: 1100

Input: Sample CCNCCC[C@H](NC(=O)[C@@H]1CCCN1C(=O)[C@@H]1CSSC[C@H](N)C(=O)N[C@@H](Cc2ccccc2)C(=O)N[C@@H]([C@@H](C)CC)C(=O)N[C@@H](CCC(N)=O)C(=O)N[C@@H](CC(N)=O)C(=O)N1)C(=O)NCC(N)=O (H-CFIQNCP[X1]G-NH2; disulfide 1-6) — what was its Ratio EC50?
Output: 450

Input: Tell me the measured Ratio EC50 of CC[C@H](C)[C@@H]1NC(=O)[C@H](Cc2ccccc2)NC(=O)[C@@H](N)CSSC[C@@H](C(=O)N2CCC[C@H]2C(=O)N[C@@H](CCCNCCC(C)C)C(=O)NCC(N)=O)NC(=O)[C@H](CC(N)=O)NC(=O)[C@H](CCC(N)=O)NC1=O (H-CFIQNCP[X5]G-NH2; disulfide 1-6) , please.
Output: 230
